# testSystem: Aspartate--tRNA(Asp/Asn) ligase (Mycobacterium tuberculosis (strain ATCC 25618 / H37Rv)) (UniProt P9WFW3)
# Sequence (whole entry): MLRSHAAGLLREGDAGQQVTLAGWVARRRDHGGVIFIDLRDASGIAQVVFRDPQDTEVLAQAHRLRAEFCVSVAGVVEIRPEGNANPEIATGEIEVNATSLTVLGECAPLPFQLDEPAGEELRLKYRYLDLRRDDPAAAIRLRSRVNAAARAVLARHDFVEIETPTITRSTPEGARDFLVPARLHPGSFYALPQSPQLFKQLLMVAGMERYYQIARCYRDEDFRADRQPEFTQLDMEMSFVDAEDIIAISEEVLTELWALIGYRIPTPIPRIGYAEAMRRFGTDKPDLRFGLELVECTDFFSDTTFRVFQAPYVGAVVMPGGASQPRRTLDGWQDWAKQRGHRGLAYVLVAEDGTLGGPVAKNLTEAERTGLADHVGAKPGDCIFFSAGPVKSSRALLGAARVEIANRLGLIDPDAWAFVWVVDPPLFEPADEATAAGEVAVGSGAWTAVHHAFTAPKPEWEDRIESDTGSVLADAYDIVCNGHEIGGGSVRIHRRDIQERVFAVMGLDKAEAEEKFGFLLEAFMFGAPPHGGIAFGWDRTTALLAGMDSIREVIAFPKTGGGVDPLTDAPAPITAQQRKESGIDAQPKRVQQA
# experimentSummary: Assay for Asp RNA synthetase-1 from Mycobacterium tuberculosis
# Assay type: functional
# Parameters: scale not given: in the data most compounds retested in dose-response had high values
# conditionDetails: 30 µM

>  <molecule>
CCc1ncc(C(=O)N2CCCCC2Cn2cccn2)s1 (stereo not given)

>  <Percent Effect / %>
-4.28

$$$$
>  <molecule>
CC(C)(C)n1ncc2c1NC(=O)CC2c1ccsc1 (stereo not given)

>  <Percent Effect / %>
2.57

$$$$
>  <molecule>
CC(=O)c1cccc(OCC(=O)NS(=O)(=O)c2ccc(C)s2)c1

>  <Percent Effect / %>
-3.8

$$$$
>  <molecule>
Cn1cc(-c2nc(CN3CCN(CCO)CC3)cs2)cn1

>  <Percent Effect / %>
-2.15

$$$$
>  <molecule>
Cc1noc2ncc(C(=O)NCC3CCN(C(C)C)C3)cc12 (stereo not given)

>  <Percent Effect / %>
1.08

$$$$
>  <molecule>
Cc1nc[nH]c1-c1nc2cc(S(=O)(=O)N3CCCC3)ccc2n1C

>  <Percent Effect / %>
1.21

$$$$
>  <molecule>
CC(C)n1ccnc1C1CCN(C(=O)C2COc3ccccc3O2)CC1 (stereo not given)

>  <Percent Effect / %>
-1.53

$$$$
>  <molecule>
CC(C)c1nc(C2CCCN2CC(=O)N2CCNC2=O)no1 (stereo not given)

>  <Percent Effect / %>
1.61

$$$$
>  <molecule>
Cc1ccc(C)c(CNC(=O)NC(C)(C(=O)O)c2ccco2)c1 (stereo not given)

>  <Percent Effect / %>
4.16

$$$$
>  <molecule>
O=C(CC1CCCC1)NCCn1ccc(-c2ccccn2)n1

>  <Percent Effect / %>
-4.3

$$$$
>  <molecule>
COCCC(=O)N1CCC2(CC1)CC(c1ccccc1)CN(C)C2 (stereo not given)

>  <Percent Effect / %>
-3.3

$$$$
>  <molecule>
O=C([C@H]1C[C@H]2OCC[C@H]2N(CCc2ccccc2)C1)N1CCCCO1

>  <Percent Effect / %>
0.871

$$$$
>  <molecule>
CCOCCNc1nc(C2CCCC2)nc2c1cnn2C

>  <Percent Effect / %>
5.12

$$$$
>  <molecule>
Clc1snnc1CN1CCCCC1Cn1cncn1 (stereo not given)

>  <Percent Effect / %>
-1.89

$$$$
>  <molecule>
CN1CCCC(c2n[nH]c3ncccc23)C1 (stereo not given)

>  <Percent Effect / %>
-7.01

$$$$
>  <molecule>
Cc1csc(CN2CC[C@H]3C[C@H](c4nnc(C)[nH]4)O[C@@H]3C2)n1

>  <Percent Effect / %>
1.94

$$$$
>  <molecule>
CC(C)(C)OC(=O)CNC(=O)CCc1nnc(-c2ccsc2)o1

>  <Percent Effect / %>
8.92

$$$$
>  <molecule>
COc1ncccc1C(=O)NCC(C)Oc1cccnc1 (stereo not given)

>  <Percent Effect / %>
-5.57

$$$$
>  <molecule>
c1cncc(CO[C@H]2CC[C@H]3[C@@H]2OCCN3C2CCOCC2)c1

>  <Percent Effect / %>
0.0456

$$$$
>  <molecule>
Cc1cccc(NC(=O)CNC(=O)Cn2ncc(Cl)c(Cl)c2=O)c1C

>  <Percent Effect / %>
9.53

$$$$

* * *

# testSystem: Tyrosyl-tRNA synthetase, putative (Trypanosoma cruzi (strain CL Brener)) (UniProt Q4DSP6)
# Sequence (Q4DSP6 as listed by the source): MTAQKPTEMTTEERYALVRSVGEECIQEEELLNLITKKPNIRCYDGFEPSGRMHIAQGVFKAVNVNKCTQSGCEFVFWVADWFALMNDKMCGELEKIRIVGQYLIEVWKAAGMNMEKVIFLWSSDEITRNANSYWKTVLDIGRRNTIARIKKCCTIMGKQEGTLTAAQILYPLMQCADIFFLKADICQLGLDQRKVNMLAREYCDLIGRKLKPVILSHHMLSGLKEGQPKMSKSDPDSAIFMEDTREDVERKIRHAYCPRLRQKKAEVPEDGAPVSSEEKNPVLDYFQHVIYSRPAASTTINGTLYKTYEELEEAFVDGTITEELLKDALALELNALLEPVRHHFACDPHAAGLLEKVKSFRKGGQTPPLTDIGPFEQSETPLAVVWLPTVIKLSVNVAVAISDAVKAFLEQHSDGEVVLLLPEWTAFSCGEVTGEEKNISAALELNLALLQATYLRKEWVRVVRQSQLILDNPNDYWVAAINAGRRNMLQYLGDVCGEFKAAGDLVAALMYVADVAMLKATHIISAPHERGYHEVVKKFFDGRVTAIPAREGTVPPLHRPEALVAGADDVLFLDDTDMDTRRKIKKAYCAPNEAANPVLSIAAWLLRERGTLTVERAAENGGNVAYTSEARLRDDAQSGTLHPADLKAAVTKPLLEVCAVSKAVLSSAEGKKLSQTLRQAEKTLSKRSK
# experimentSummary: Trypanosoma cruzi tyrosyl tRNA synthetase (TcYRS) _High Tyrosine SOP
# Assay type: functional
# Design: scale not given: in the data most compounds retested in dose-response had high values
# conditionDetails: 30 µM
Criterion: Percent Effect strictly less than 6%. Met: met. Not met: not met.

>  <compound>
COCCN1C[C@@H]2[C@@H](OC)CCN(Cc3cccc(C)n3)[C@@H]2C1

>  <qualitativeLabel>
not met

$$$$
>  <compound>
COCCNC(=O)c1cn(C(C)(C)C)c2ncccc12

>  <qualitativeLabel>
met

$$$$
>  <compound>
Cc1cc(CN2CC[C@H]3C[C@H](C)O[C@@H]3C2)no1

>  <qualitativeLabel>
not met

$$$$
>  <compound>
O=C1CC2(CCN(Cc3ccccn3)C2)CN1c1cncnc1 (stereo unspecified)

>  <qualitativeLabel>
met

$$$$
>  <compound>
CC(C)CN1CCC2(C1)CN(c1ncccn1)C2

>  <qualitativeLabel>
met

$$$$
>  <compound>
CCOCC(O)CN1CCN(C(=O)Cc2ccc3c(c2)CCO3)CC1 (stereo unspecified)

>  <qualitativeLabel>
met

$$$$
>  <compound>
O=C(C1CCC1)N1CCC2(CC1)OCCO2

>  <qualitativeLabel>
met

$$$$
>  <compound>
CCc1nc(CN2CCN(C(=O)Cc3c(C)noc3C)CC2)cs1

>  <qualitativeLabel>
not met

$$$$
>  <compound>
O=C(CC1CC1)N[C@@H]1CN(Cc2ccncc2)C[C@@H]2CCCO[C@@H]21

>  <qualitativeLabel>
met

$$$$
>  <compound>
CC(=O)N1CCN(Cc2ccccn2)CC2(CC(=O)N(C)C2)C1 (stereo unspecified)

>  <qualitativeLabel>
not met

$$$$
>  <compound>
Cc1ccc(CN2CCC3(CC2)C(=O)N(C)c2ccccc23)s1

>  <qualitativeLabel>
not met

$$$$
>  <compound>
Cc1nc(CN2CCO[C@H]3[C@@H](OCc4ccccn4)CC[C@@H]32)cs1

>  <qualitativeLabel>
met

$$$$
>  <compound>
Cc1cccc(CN2CC[C@@H]3[C@@H]2CCN3C(=O)c2cnoc2C)n1

>  <qualitativeLabel>
met

$$$$
>  <compound>
C[C@@H]1CN(Cc2ccsc2)C[C@]12CCN(Cc1cccnc1)C2=O

>  <qualitativeLabel>
met

$$$$
>  <compound>
Cc1noc(C)c1CN1C[C@H](OCC2CC2)[C@H]2OCCC[C@H]21

>  <qualitativeLabel>
not met

$$$$
>  <compound>
O=C1[C@H]2CN(Cc3ccoc3)C[C@H]2CN1Cc1ccncc1

>  <qualitativeLabel>
met

$$$$
>  <compound>
CCN(CC)C(=O)c1ccc(NC(=O)CNc2ccc(F)cc2Cl)cc1

>  <qualitativeLabel>
not met

$$$$
>  <compound>
c1ccc(CN2CCO[C@H]3[C@H](OCCN4CCCC4)CC[C@@H]32)nc1

>  <qualitativeLabel>
met

$$$$
>  <compound>
CC(Cc1c(F)cccc1F)NC(=O)Nc1cnn(CC(N)=O)c1 (stereo unspecified)

>  <qualitativeLabel>
met

$$$$
>  <compound>
O=C(Cc1ccc(-n2cccn2)cc1)N1CCN2CCCCC2C1 (stereo unspecified)

>  <qualitativeLabel>
met

$$$$
>  <compound>
CC[C@H]1NCCC[C@]12CCC(=O)N2Cc1ccncc1

>  <qualitativeLabel>
met

$$$$

* * *

# testSystem: Tyrosyl-tRNA synthetase, putative (Trypanosoma cruzi (strain CL Brener)) (UniProt Q4DSP6)
# experimentSummary: Trypanosoma cruzi tyrosyl tRNA synthetase (TcYRS) _High Tyrosine SOP
# Assay type: functional
# Parameters: scale not given: in the data most compounds retested in dose-response had high values
# conditionDetails: 30 µM
Below: a set of entries, each annotated with reported Percent Effect.

>  <molecule>
O=C(NC[C@]12COC[C@H]1CN(Cc1ccncc1)C2)c1ccco1

>  <unitLabel>
%

>  <Percent Effect>
10.6

$$$$
>  <molecule>
CC(C)(C)n1cc(C(=O)NCCCn2ccnc2)c2cccnc21

>  <unitLabel>
%

>  <Percent Effect>
2.12

$$$$
>  <molecule>
O=C(Cc1cccs1)N1C[C@@H]2OCCN(CC3CCCC3)[C@@H]2C1

>  <unitLabel>
%

>  <Percent Effect>
4.17

$$$$
>  <molecule>
c1ccc(N2CCCC3(CCN(Cc4nccs4)C3)C2)nc1 (centres undefined)

>  <unitLabel>
%

>  <Percent Effect>
10.6

$$$$
